The reported measurements were obtained from patent US20180320179A1.

Provide the recorded ED80 (ppm) SEPTTR-184 3DC for the entries that follow.
Test system: Zymoseptoria tritici (SEPTTR-184)
Experiment: Cyp51 dsRNA tile (fragment) foliar application bioassay (Example 6)
Format: in vivo
Details: 3 days curative; calculated from disease control

Give me measured ED80 (ppm) SEPTTR-184 3DC, please, for this molecule: MgCyp51-T1: dsRNA tile of Zymoseptoria tritici Cyp51, 232 bp, location 166-397 (nucleic acid, listed as Zymoseptoria tritici) GTATTCCACTGGGTGCCCTTCATCGGAAGCACCATCACATACGGCATCGACCCATACAAGTTCTTCTTCTCCTGTCGGGAAAAGTATGGAGATGTCTTTACATTCATCCTGCTGGGAAAGAAGACGACGGTGTGCTTGGGCACCAAGGGCAATGATTTTATTTTGAATGGAAAACTGAAGGACGTCAACGCGGAGGAGATATACAGCCCGCTGACCACTCCTGTCTTTGGCA
>200 ppm

Give me measured ED80 (ppm) SEPTTR-184 3DC, please, for this molecule: YFP: non-target dsRNA control (YFP, yellow fluorescent protein coding region) (nucleic acid, double-stranded RNA; synthesized partial coding region) TGTAGAAATCCTTCAGCTCGGGGCCGTACTTGGCGAAGCACTGGGCGCCGTAGGTCAGGGTGGTCACCAGGGTGCTCCAGGGCACGGGCACATCGCCGGTGGTGCAGATGAACTGGGCATCCACCTTGCCCACGCTGGCATCGCCGTAGCCCTTGCCGCGGATGCTGAAGGTGTGGCCATCCACATTGCCCTCCATCTCCACCACGTAGGGGATCTTGCCGTGGAACAGCAGGGCGCCGCTGGAGCCCAT
>200 ppm

Give me measured ED80 (ppm) SEPTTR-184 3DC, please, for this molecule: MgCyp51-T11: dsRNA tile of Zymoseptoria tritici Cyp51, 172 bp, location 775-946 (nucleic acid, listed as Zymoseptoria tritici) TCCGAGACATACATGTCGATCATTCAGAAGAGACGAGAGTCCAAAACGGGCGAACATGAGGAAGACATGATCCACAACTTGATGCAGTGCAAATACAAGGACGGCAATGCCATTCCCGACAAGGAGATTGCTCATATGATGATTGCGCTGCTCATGGCCGGCCAGCACTCTT
>200 ppm
